# TARGET OR SYSTEM: T1, EsCas13d, nuclease-dead (Eubacterium siraeum, UniProt B0MS50, R295A;H300A;R849A;H854A)
# T1 sequence: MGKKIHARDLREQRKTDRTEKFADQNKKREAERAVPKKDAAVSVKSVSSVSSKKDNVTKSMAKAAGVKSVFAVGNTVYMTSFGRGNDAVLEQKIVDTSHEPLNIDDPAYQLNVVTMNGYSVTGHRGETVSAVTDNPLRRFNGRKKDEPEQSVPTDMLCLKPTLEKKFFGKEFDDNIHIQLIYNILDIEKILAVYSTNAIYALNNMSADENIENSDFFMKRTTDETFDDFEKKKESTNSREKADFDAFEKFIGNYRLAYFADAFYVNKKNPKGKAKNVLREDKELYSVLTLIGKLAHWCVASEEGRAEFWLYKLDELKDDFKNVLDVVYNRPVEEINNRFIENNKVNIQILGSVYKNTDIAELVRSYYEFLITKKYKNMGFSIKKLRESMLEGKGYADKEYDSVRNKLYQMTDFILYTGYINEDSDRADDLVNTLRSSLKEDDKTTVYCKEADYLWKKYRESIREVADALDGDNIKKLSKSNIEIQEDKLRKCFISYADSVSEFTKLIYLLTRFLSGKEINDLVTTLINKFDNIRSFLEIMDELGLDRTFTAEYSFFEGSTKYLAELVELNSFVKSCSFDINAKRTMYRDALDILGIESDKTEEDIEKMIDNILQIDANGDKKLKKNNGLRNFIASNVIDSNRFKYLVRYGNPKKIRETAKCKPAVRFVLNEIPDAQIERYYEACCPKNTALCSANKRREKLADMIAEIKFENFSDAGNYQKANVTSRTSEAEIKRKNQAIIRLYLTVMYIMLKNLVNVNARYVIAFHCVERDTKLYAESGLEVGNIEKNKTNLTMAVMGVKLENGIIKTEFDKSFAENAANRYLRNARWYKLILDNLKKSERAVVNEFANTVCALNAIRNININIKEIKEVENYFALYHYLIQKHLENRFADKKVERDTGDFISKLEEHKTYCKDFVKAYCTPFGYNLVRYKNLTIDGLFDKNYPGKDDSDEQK
# ASSAY PROTOCOL: crRNA (strand 1, pre-loaded); Mg2+; 40 mM Tris-HCl pH 7.5, 150 mM NaCl, 6 mM MgCl2, 1 mM DTT, 0.1% Tween-20, 0.2 mg/ml BSA; 25 C; 10 min per concentration, then washed
# EXPERIMENTAL PARAMETERS: tags: His6-TwinStrep-SUMO cleaved; N-terminal SNAP kept (SNAP-Surface 488); label: 3' end held by stalled T7 RNA polymerase
Listed below: Kd values for each entry.

target 1 C2U,C21U (mixed) RNA 1: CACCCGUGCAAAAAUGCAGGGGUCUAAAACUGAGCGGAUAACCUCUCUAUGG RNA 2: GGGAAUGGAUCCACAUCUACGAAUUCGUACUAUAGAGAGGUUAUCCGCUUACCGAGAUCGGAAGAGCACACGU	0.0082 µM

Task item: What value of Kd has been reported for the following binder? target 1 insC 3' of 16,insG 3' of 6 (mixed) RNA 1: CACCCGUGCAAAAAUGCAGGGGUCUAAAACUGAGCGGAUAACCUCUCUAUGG RNA 2: GGGAAUGGAUCCACAUCUACGAAUUCGUACCAUAGACGAGGUUAUCCGGCUCACCGAGAUCGGAAGAGCACACGU
Reply: ~0.1 µM

Task item: What value of Kd has been reported for the following binder? target 1 U3C,G13A (mixed) RNA 1: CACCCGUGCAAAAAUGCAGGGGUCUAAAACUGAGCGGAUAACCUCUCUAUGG RNA 2: GGGAAUGGAUCCACAUCUACGAAUUCGUACCAUAGAGAAGUUAUCCGCCCACCGAGAUCGGAAGAGCACACGU
Reply: 0.037 µM

Task item: What value of Kd has been reported for the following binder? target 1 C4U,A9U (mixed) RNA 1: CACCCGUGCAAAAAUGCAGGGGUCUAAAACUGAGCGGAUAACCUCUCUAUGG RNA 2: GGGAAUGGAUCCACAUCUACGAAUUCGUACCAUAGAGAGGUUUUCCGUUCACCGAGAUCGGAAGAGCACACGU
Reply: 0.05 µM
